# response of 2nd mAb values compiled below
- assayed_system: T1, ZIKV-VLP (Native Antigen Inc.) (Zika virus)
- T1 construct: also called Zika VLP; ZVLP
- test_name: BLI binning on ZIKV-VLP; 1st mAb: 306-2
observable: response of 2nd mAb

binder | observed_value
anti-ZIKV antibody 78-2 (antibody, V domains shown, also called clone 78-2) VH: QQQLVESGGGLVKPGASLTLNCKASGLDFSTNSYMCWVRQAPGKGLEWIACIYVGDSSEIYYASWAKGRFTISKTSSTTVTLQMTSLTAADTATYFCARDLPSFTAPYAGYLRLWGPGTLVTVSS VL: QPVLTQPPSLSASLGTTARLTCTLRTGYNVGDYPLLWLQRVPGRPPRYLLTYHTEEFKHQGSGVHSRFSGSKDASENAGVLSISGLQPEDEANYYCYTVHATESSLHYVFGGGTQLTVTG | 0.28
anti-ZIKV antibody 11-3 (antibody, V domains shown, also called clone 11-3) VH: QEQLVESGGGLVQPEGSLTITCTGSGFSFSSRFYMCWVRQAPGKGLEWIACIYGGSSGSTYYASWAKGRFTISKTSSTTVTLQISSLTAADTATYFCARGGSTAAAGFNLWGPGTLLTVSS VL: DVVMTQTPASVSATVGGTVTIKCQASEDIYNLLAWYQQKPGQPPKLLIYYASTLASGVPSRFKGSGSGTEFTLTISDLECADAATYYCQCNDYGGTYVPNAFGGGTEVVVKG | 0.43
anti-ZIKV antibody 306-2 (antibody, V domains shown) VH: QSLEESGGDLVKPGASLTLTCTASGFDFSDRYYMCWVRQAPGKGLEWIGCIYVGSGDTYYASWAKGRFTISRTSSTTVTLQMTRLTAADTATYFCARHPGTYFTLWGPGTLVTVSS VL: DVVMTQTPSSVSAAVGGTVTINCQASQNIVNNLAWYQQRPGQPPKLLIYDTSTLASGVPSRFKGSGSGTEFTLTISDLECADAATYYCQTYYYYNKIINGFGGGTEVVVKG | 0.01
